biological target: LRRK2 (Homo sapiens (Human), UniProt Q5S007, G2019S); experiment: In Vitro LRRK2 LabChip Assay (LRRK2 Ki)
Sequence (Q5S007 970-2527 G2019S): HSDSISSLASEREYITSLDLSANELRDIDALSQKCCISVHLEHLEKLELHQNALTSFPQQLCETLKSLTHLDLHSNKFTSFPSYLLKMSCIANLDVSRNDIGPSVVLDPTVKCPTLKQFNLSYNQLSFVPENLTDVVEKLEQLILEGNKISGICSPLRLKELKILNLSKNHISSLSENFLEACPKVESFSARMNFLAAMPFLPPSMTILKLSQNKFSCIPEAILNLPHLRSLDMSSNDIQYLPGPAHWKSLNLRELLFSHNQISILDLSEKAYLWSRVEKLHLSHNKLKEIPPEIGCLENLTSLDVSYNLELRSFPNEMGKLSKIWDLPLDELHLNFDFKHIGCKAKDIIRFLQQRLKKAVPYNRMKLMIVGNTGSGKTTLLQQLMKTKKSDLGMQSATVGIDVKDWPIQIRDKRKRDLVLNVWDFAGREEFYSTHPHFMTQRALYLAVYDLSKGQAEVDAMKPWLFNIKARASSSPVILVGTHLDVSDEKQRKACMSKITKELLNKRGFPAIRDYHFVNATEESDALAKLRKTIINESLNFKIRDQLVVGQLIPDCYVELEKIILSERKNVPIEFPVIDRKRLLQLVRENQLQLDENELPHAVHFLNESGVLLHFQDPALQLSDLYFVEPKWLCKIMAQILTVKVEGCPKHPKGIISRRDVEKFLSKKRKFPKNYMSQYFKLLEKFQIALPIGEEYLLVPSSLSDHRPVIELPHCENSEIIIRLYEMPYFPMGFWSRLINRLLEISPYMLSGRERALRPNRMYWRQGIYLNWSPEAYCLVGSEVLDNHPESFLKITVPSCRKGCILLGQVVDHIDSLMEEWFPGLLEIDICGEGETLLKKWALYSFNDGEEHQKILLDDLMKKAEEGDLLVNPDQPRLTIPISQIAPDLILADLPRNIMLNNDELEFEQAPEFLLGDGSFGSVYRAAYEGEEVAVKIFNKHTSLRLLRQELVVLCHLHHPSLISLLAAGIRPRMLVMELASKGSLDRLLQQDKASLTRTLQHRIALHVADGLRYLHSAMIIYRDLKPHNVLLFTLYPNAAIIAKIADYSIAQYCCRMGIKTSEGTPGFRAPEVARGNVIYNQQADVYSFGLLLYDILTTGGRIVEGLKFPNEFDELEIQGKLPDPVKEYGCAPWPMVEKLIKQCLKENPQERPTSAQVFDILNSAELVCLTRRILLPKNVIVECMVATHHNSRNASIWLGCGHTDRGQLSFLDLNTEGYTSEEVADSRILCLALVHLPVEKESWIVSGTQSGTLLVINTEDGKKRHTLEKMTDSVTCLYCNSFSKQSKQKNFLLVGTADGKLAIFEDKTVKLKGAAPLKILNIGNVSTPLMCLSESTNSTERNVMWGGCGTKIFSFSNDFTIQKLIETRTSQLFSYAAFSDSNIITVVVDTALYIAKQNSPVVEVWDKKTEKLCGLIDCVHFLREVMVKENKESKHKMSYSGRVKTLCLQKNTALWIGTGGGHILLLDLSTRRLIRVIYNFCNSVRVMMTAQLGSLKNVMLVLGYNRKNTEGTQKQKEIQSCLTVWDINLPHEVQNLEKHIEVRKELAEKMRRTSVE
readout: Ki (nM)

| molecule | Ki, nM |
| --- | --- |
| CNc1nc(Nc2ccc(-c3cncn3C)cc2OC)ncc1Cl [Compound 16] | 2 |
| CNc1nc(Nc2ccc(-c3nnnn3C)cc2OC)ncc1Cl [Compound 10] | 7 |
| CNc1nc(Nc2ccc(-c3cnnn3C)cc2OC)ncc1C(F)(F)F [Compound 17] | 2 |
| CNc1nc(Nc2cc(OC)c(-c3nccn3C)cc2Cl)ncc1C(F)(F)F [Compound 19] | 3 |
| CNc1nc(Nc2cc(F)c(-c3nnnn3C)cc2OC)ncc1C(F)(F)F [Compound 22] | 10 |

[a] CNc1nc(Nc2cc(F)c(-n3nnnc3C)cc2OC)ncc1C(F)(F)F [Compound 42]
[b] CNc1nc(Nc2cc(F)c(-c3nnc(C)o3)cc2OC)ncc1C(F)(F)F [Compound 30]
input: Of the two listed items, a and b , which carries the larger Ki figure? I would appreciate it if you answered with the label of your choice.
output: b
(b: 12 nM, a: 3 nM)

[a] CNc1nc(Nc2cc(F)c(-c3nc(C)no3)cc2OC)ncc1C(F)(F)F [Compound 6]
[b] CNc1nc(Nc2cc(F)c(-c3cnn(C4COC4)c3)cc2OC)ncc1C(F)(F)F [Compound 44]
input: Returns: the argument ( a or b ) having the larger Ki. Pick one; state its label.
output: a
(a: 32 nM, b: 10 nM)

###

biological target: LRRK2 (Homo sapiens (Human), UniProt Q5S007, G2019S); assay: In Vitro LRRK2 LabChip Assay (LRRK2 Ki)
pKi: −log10 of the molar value.
readout: pKi

Sample answers from the record:
| compound | experimentalResult |
| --- | --- |
| CNc1nc(Nc2cc(OC)c(-c3nnc(C)o3)cc2Cl)ncc1Cl [Compound 37] | 7.92 |
| CNc1nc(Nc2ccc(-c3ccnn3C)cc2OC)ncc1C(F)(F)F [Compound 25] | 9.00 |
| CNc1nc(Nc2cc(F)c(-n3nc(C)cc3COC)cc2OC)ncc1C(F)(F)F [Compound 47] | 8.30 |

[I] CNc1nc(Nc2ccc(-c3nnnn3C)cc2OC)ncc1C(F)(F)F [Compound 20]
[II] CNc1nc(Nc2ccc(-c3nnn(C)n3)cc2Cl)ncc1C(F)(F)F [Compound 3]
input: I would appreciate it if you could say which entry, I or II , has the lower pKi value. Refer to your chosen entry by its label in the reply.
output: II
(II: 7.74, I: 8.52)

[a] CNc1nc(Nc2ccc(-c3nnn[nH]3)cc2Cl)ncc1C(F)(F)F [Compound 1]
[b] CNc1nc(Nc2ccc(-c3nccn3C)cc2OC)ncc1Cl [Compound 15]
input: Pick one: a or b . Which has the bigger pKi number? Lab log: write the label of the selected item as the result.
output: a
(a: 8.52, b: 8.15)

[1] CNc1nc(Nc2ccc(-c3cnn(C)c3)cc2OC)ncc1C(F)(F)F [Compound 5]
[2] CNc1nc(Nc2cc(C)c(-n3nnnc3COC)cc2OC)ncc1C(F)(F)F [Compound 46]
input: Returns: the argument ( 1 or 2 ) having the larger pKi. I would appreciate it if you answered with the label of your choice.
output: 2
(2: 9.00, 1: 8.40)
